Measured values drawn from patent US5807885A for this set.

Target: neuronal nitric oxide synthetase (Rattus norvegicus, UniProt P29476)
Construct: Enzyme was isolated from rat hippocampus or cerebellum
Sequence (P29476 whole entry): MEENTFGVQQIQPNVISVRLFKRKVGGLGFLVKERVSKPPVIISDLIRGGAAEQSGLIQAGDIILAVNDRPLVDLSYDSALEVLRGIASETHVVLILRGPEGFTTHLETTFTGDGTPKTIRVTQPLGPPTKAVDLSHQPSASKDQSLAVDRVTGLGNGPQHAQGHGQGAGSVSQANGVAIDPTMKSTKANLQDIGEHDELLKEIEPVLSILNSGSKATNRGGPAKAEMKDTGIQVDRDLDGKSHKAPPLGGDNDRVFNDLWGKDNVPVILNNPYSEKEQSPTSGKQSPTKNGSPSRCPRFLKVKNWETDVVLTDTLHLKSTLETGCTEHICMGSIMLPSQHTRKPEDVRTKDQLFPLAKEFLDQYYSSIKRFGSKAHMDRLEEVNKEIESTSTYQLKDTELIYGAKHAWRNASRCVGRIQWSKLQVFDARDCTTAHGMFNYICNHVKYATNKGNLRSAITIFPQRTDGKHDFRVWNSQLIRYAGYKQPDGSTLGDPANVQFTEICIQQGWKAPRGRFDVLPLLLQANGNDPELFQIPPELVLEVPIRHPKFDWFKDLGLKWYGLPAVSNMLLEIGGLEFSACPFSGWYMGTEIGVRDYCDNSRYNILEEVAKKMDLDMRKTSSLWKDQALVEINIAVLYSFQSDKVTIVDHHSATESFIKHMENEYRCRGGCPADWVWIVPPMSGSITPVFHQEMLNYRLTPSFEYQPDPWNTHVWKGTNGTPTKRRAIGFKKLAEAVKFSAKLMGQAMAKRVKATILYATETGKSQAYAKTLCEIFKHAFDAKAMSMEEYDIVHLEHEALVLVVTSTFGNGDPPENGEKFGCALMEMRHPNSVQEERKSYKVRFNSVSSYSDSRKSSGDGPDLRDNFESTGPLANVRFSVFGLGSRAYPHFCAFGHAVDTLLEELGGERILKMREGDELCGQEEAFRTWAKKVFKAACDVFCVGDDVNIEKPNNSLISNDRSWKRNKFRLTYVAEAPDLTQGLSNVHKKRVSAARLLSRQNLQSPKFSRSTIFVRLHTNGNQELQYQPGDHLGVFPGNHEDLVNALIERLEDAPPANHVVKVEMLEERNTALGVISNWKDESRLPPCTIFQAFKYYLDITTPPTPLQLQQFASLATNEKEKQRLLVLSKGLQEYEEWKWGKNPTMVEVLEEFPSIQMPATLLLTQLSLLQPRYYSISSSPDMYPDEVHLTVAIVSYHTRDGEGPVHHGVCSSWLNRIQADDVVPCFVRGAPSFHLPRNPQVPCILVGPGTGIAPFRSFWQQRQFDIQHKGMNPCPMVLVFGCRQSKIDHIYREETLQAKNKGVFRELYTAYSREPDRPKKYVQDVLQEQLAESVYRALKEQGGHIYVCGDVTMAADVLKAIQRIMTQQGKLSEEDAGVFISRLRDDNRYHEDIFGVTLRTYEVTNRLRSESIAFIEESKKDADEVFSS
Assay: Screen A: screen for neuronal nitric oxide synthetase inhibitory activity
Conditions: neuronal isoform, rat hippocampus or cerebellum supernatant, read-out: IC50 (concentration of drug substance which gives 50% enzyme inhibition in the assay)
readout-name: IC50

The examples below pair each entry with its known result.
molecule: N=C(Nc1ccc(CCCC(=O)N2CCOCC2)cc1)c1cccs1
study-system: neuronal nitric oxide synthetase (Rattus norvegicus, UniProt P29476)
IC50: < 10 µM
//
molecule: N=C(Nc1ccc(C(=O)Nc2ccccc2)cc1)c1cccs1
study-system: neuronal nitric oxide synthetase (Rattus norvegicus, UniProt P29476)
IC50: < 10 µM
//
molecule: NC(=Nc1ccc(NC(=O)N(c2ccccc2)c2ccccc2)cc1)c1cccs1
study-system: neuronal nitric oxide synthetase (Rattus norvegicus, UniProt P29476)
IC50: < 100 µM

Let us examine a further case.
Bench note, neuronal nitric oxide synthetase (Rattus norvegicus, UniProt P29476): "NC(=Nc1ccc(CCNCc2ccccc2)cc1)c1cccs1" , IC50 reads < 10 µM
